Cited source for all entries: patent US20260242735A1

# assayed_system: human CD33 T142A (human, UniProt P20138 18-364)
# Sequence (P20138 18-364 T142A limits assumed): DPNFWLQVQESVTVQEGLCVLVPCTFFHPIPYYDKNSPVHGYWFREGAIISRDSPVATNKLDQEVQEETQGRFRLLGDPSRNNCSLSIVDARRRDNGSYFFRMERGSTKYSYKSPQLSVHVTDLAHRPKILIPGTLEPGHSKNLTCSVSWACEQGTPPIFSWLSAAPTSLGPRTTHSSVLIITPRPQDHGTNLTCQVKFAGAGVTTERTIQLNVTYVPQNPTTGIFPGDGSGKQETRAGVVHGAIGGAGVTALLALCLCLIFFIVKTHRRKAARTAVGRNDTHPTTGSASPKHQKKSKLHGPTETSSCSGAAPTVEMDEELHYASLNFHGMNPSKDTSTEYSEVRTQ
# assay_notes: flow cytometry on HEK293-T, alanine scan
experimental_readout: Mean % WT Binding (% WT binding)
# value in % WT binding; strip the unit string

Completed entries (count: 3):
{"binder": "Refmab #4 (antibody, V domains shown, The alanine scan used IgG or Fab) VH: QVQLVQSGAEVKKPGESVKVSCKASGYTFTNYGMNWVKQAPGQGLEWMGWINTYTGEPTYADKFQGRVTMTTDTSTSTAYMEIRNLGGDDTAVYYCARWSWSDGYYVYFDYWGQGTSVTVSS VL: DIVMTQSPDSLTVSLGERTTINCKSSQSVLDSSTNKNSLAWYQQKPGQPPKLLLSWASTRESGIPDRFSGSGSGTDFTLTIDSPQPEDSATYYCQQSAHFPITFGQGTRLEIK", "test_result": 88.8}
{"binder": "Refmab #3 (antibody, V domains shown, The alanine scan used IgG or Fab) VH: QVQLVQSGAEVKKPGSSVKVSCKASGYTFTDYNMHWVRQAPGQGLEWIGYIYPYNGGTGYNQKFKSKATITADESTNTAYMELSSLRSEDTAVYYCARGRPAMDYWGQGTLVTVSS VL: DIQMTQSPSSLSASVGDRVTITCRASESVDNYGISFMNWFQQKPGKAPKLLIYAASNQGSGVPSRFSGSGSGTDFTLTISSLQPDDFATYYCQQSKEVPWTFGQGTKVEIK", "test_result": 133}
{"binder": "Refmab #1 (antibody, V domains shown, The alanine scan used IgG or Fab; also called hP67.6) VH: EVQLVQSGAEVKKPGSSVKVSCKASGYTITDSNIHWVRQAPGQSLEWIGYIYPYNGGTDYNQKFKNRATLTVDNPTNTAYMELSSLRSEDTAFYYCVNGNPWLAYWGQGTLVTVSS VL: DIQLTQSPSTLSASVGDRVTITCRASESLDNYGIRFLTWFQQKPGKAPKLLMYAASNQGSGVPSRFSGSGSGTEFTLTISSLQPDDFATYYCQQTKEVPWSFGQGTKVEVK", "test_result": 85.1}

Exam item: May I ask what Mean % WT Binding has been recorded for Refmab #2 (antibody, V domains shown, The alanine scan used IgG or Fab) VH: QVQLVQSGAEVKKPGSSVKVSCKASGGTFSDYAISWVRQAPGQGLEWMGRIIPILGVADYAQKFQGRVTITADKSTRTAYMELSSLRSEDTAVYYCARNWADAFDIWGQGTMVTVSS VL: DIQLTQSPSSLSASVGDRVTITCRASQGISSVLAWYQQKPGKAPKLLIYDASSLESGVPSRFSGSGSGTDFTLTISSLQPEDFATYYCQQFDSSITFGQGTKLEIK ?
Marked response: 104
